Some compounds, each annotated with its measured TGI.
# System: UACC-62 melanoma
# TEST_SUMMARY: NCI tumour cell line growth inhibition, 48 h

[
  {
    "COMPOUND": "CC(=O)OCC(OC(C)=O)C(OC(C)=O)C(/C=N\\Nc1nc2ccccc2c(=O)[nH]1)=N\\Nc1nc2ccccc2c(=O)[nH]1 (stereo unspecified)",
    "TGI": "> 100 µM"
  },
  {
    "COMPOUND": "C#CCNC(=O)N(CC#C)N=O",
    "TGI": "> 100 µM"
  },
  {
    "COMPOUND": "C=C=C(C(=O)OC)S(=O)c1ccccc1[N+](=O)[O-] (stereo unspecified)",
    "TGI": "> 100 µM"
  },
  {
    "COMPOUND": "Nc1ccc2nc3c(nc2c1)C(=O)c1ccccc1-3",
    "TGI": "> 100 µM"
  },
  {
    "COMPOUND": "CN(C)c1ccc(/C=C/C(=O)[O-])cc1.CN(C)c1ccc(/C=C/C(=O)[O-])cc1.[Cu+2]",
    "TGI": "> 62.9 µM"
  },
  {
    "COMPOUND": "CN1C(=O)CCC2[C@@H]3CC=C4C[C@@H](O)CC[C@]4(C)C3CC[C@@]21C (stereo partly specified)",
    "TGI": "> 100 µM"
  }
]
